Assay: Antiinflammatory activity in PMA-differentiated human U937 cells assessed as inhibition of LPS-stimulated IL-1beta secretion at 250 uM preincubated for 2 hrs followed by LPS-stimulation measured after 24 hrs by ELISA relative to control
Type: functional
Settings: U-937
Below, each of the compounds is paired with its reported inhibition at 250 µM value.
Please give a number only; it is taken to be in %.

Known results for compounds:
CCOC(=O)Cc1ccc(O)c(OC)c1 : 5.7
COc1cc(CC(=O)O)ccc1O : 5.7

Lab note: next compound to report on.
Request: Data request, read-out inhibition at 250 µM, for CCOC(=O)C(c1ccc(O)c(OC)c1)C(c1ccc(O)c(OC)c1)c1ccc(O)c(OC)c1 (stereo not drawn)
Response: 10.9

---

Below, each of the compounds is paired with its reported inhibition at 100 µM value.
Assay: Antiinflammatory activity in human U937-3xkB-luc cells assessed as inhibition of LPS-induced NFkappaB activation at 100 uM preincubated for 30 mins followed by LPS-stimulation measured after 6 hrs by luciferase assay relative to control
Format: functional
Details: U-937
Please give a number only; it is taken to be in %.

COc1cc(C(O)C(=O)O)ccc1O (stereo not drawn) : 16.3
CCOC(=O)C(c1ccc(O)c(OC)c1)C(c1ccc(O)c(OC)c1)c1ccc(O)c(OC)c1 (stereo not drawn) : 74.7

Lab note: next compound to report on.
Request: Data request, read-out inhibition at 100 µM, for COc1cc(C(CO)C(c2ccc(O)c(OC)c2)c2ccc(O)c(OC)c2)ccc1O (stereo not drawn)
Response: 43.4
